Test system: PRKCH;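 further: KINOMEscan kinase panel screen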
Details: concentration: 1 μM, replicates: in singlicate; n = 1
// label = Yes if %Inh is not less than 4%, otherwise No

- compound: "CC(C)(C)OC(=O)NC1CCCN(c2cc(-c3ccc4c(N)n[nH]c4c3)nc(N)n2)C1 (stereo not drawn) [GSK2286096]"
  classification: "No"
- compound: "Cl.Fc1ccccc1COc1ccc(Nc2ncnc3ccc(-c4nnc(C(F)(F)F)o4)cc23)cc1Cl [GW424170]"
  classification: "No"

Hello, I need to know if `Cn1ccc2ncnc(Oc3ccc(NC(=O)Nc4cccnc4)c(Cl)c3)c21` has measured %Inh not below 4%. Thanks!
Yes

Hi, just wondering whether CNc1nccc(-c2c(-c3ccc(F)cc3)ncn2CCCN2CCOCC2)n1 [SB-222516] shows %Inh of 4% or higher.
No

Determine whether this compound has %Inh no lower than 4%: CCc1nc(-c2cccc(N(C)S(=O)(=O)c3ccccc3)c2)c(-c2ccnc(Nc3ccc(N4CCN(C(C)=O)CC4)nc3)n2)s1 [GSK1645895]
No

Does %Inh meet or surpass 4% for CSc1ccc(NC2=C(c3ccccc3Cl)C(=O)NC2=O)cc1 [SB-342411] ?
Yes

Please indicate if the recorded %Inh for `Fc1ccc(-c2ncn(CCCNCc3ccccc3)c2-c2ccncc2)cc1` meets or exceeds 4%.
No

API: above_or_equal(metric=%Inh, cutoff=4%) for item Fc1cccc(COc2ccc(Nc3ncnc4sc(-c5ccc[nH]5)cc34)cc2Cl)c1 [GW707818]
Yes
